tested on: L1210 leukemia ip in BDF1 mice, survival T/C; test: NCI In Vivo Anticancer Drug Screen. Data for tumor model L1210 Leukemia (intraperitoneal) in B6D2F1 (BDF1) mice; conditions: endpoint: mean survival time; dose: 400.0 mg/kg/injection; schedule: Q04DX003 (ip); vehicle: Klucel (hydroxypropylcellulose) (HPC); higher = longer survival
Inconclusive results and toxic doses are left out. Peptide text beside a SMILES is read from it. * marks the point of attachment. Cbz = O=C(OCc1ccccc1)*
Recorded T/C values for a group of compounds are listed next.

>  <compound>
CSCCC(NC(=O)C(CO)NC(=O)OCc1ccccc1)C(=O)O (stereo not drawn) (Cbz-Ser-Met-OH; configuration not given here)

>  <test-target>
L1210 leukemia ip in BDF1 mice, survival T/C

>  <T/C>
96 % of control

$$$$
>  <compound>
CCOC(=O)c1ccc(C(=O)OCC)c(Cl)n1

>  <test-target>
L1210 leukemia ip in BDF1 mice, survival T/C

>  <T/C>
102 % of control

$$$$
>  <compound>
CCOc1ccccc1NC(=S)NC(=O)c1cccc([N+](=O)[O-])c1

>  <test-target>
L1210 leukemia ip in BDF1 mice, survival T/C

>  <T/C>
100 % of control

$$$$
>  <compound>
Cc1ccc(N2SC(Cl)(Cl)N(c3ccc(C)cc3)SC2(Cl)Cl)cc1

>  <test-target>
L1210 leukemia ip in BDF1 mice, survival T/C

>  <T/C>
100 % of control

$$$$

Entry O=C(COc1ccc(Cl)cc1)Nc1ccccc1F ; assay system L1210 leukemia ip in BDF1 mice, survival T/C; T/C recorded at 90 % of control

---

system: L1210 leukemia ip in BDF1 mice, survival T/C; assay: NCI In Vivo Anticancer Drug Screen. Data for tumor model L1210 Leukemia (intraperitoneal) in B6D2F1 (BDF1) mice; settings: endpoint: mean survival time; dose: 200.0 mg/kg/injection; schedule: Q01DX009 (ip); vehicle: Klucel (hydroxypropylcellulose) (HPC); higher = longer survival
Toxic doses and inconclusive results are not listed.
recorded-endpoint: T/C

# count of solved cases: 2
>  <compound>
Cc1cc(C(=O)O)c(C)n1-c1cccc(C(=O)O)c1

>  <test-target>
L1210 leukemia ip in BDF1 mice, survival T/C

>  <T/C>
89 % of control

$$$$
>  <compound>
OCC(O)C(O)C(O)C(O)C1SCCS1 (configuration not stated)

>  <test-target>
L1210 leukemia ip in BDF1 mice, survival T/C

>  <T/C>
89 % of control

$$$$

Next up:
Item CC(=O)Nc1ccc(C=Nc2ccc3c(c2)Cc2ccccc2-3)cc1 ; assay system L1210 leukemia ip in BDF1 mice, survival T/C; T/C reported as 87 % of control

---

system: L1210 leukemia ip in BDF1 mice, survival T/C; experiment: NCI In Vivo Anticancer Drug Screen. Data for tumor model L1210 Leukemia (intraperitoneal) in B6D2F1 (BDF1) mice; settings: endpoint: mean survival time; dose: 50.0 mg/kg/injection; schedule: Q01DX009 (ip); vehicle: saline; higher = longer survival
Inconclusive results and toxic doses are left out.
recorded-endpoint: T/C

The examples below pair each entry with its known result.
>  <compound>
Cc1ccc(C(SCC(N)C(=O)O)(c2ccccc2)c2ccccc2)cc1 (stereo not drawn)

>  <T/C>
204 % of control

$$$$
>  <compound>
Nc1nc(Nc2ccc(C3=NCCN3)cc2)nc(Nc2ccc(C3=NCCN3)cc2)n1

>  <T/C>
123 % of control

$$$$
>  <compound>
C[N+](C)(C)CCCCCC[N+](C)(C)C

>  <T/C>
104 % of control

$$$$
>  <compound>
NCCCCS(=O)(=O)Nc1ccc(Nc2c3ccccc3nc3cc([N+](=O)[O-])ccc23)cc1

>  <T/C>
228 % of control

$$$$
>  <compound>
CC1CCCNC1C (stereo not drawn)

>  <T/C>
103 % of control

$$$$
>  <compound>
Nc1ncnc2c1cnn2Cc1ccc(Cl)cc1

>  <T/C>
100 % of control

$$$$
>  <compound>
CCN1CCC(CN2c3ccccc3Sc3ccccc32)C1 (stereo not drawn)

>  <T/C>
110 % of control

$$$$
>  <compound>
CC[N+]([O-])(CC)CCNc1ccc(CO)c2sc3ccccc3c(=O)c12

>  <T/C>
92 % of control

$$$$
>  <compound>
COc1cc2cc[n+](C)cc2cc1OC

>  <T/C>
111 % of control

$$$$
>  <compound>
CC(O)C[N+](=O)[O-] (stereo not drawn)

>  <T/C>
103 % of control

$$$$

The recorded T/C for Nc1ncnc2c1c(-c1nn[nH]n1)cn2C1OC(CO)C(O)C1O (stereo not drawn) is 98 % of control

Documented T/C of NC(=O)C(Br)CBr (stereo not drawn) : 95 % of control

Lookup result for Cn1cc(C=O)c2nccnc21 ; measured T/C: 98 % of control
